Values compiled from the supplement of paper PMC10567573.

Here, each record is paired with measured protein stability index data.
B1: DYRK1B (parent)
chain: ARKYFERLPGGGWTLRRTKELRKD

# Variants of: B1
# method: protein stability index of a GFP-peptide fusion (GPS, HEK-293T) (PSI 1-6); higher = more stable;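 further: lentivirally expressed fusions sorted by FACS into six bins by GFP to DsRed ratio, PSI derived from sequencing read proportions per bin multiplied by bin number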
# cond: c terminus: a fixed tail appended

{"ordered_residues": "ARKYFERLPGGGWTLRRTKELRYD", "protein stability index": 3.07}
{"ordered_residues": "ARKNFERLPGGGWTLRRTKELRKD", "protein stability index": 4.17}
{"ordered_residues": "AAKYFERLPGGGWTLRRTKELRKD", "protein stability index": 3.77}
{"ordered_residues": "ARKYFERLPGGGWTLTRTKELRKD", "protein stability index": 3.5}
{"ordered_residues": "ARKYFERLPGGGWTLRRTKELRKC", "protein stability index": 2.7}
{"ordered_residues": "ARKYFERLPGGGWTLRRTKELHKD", "protein stability index": 3.5}
{"ordered_residues": "ARKYFERLPVGGWTLRRTKELRKD", "protein stability index": 3.45}
{"ordered_residues": "ARKYFERLPGGGWTLRRTKTLRKD", "protein stability index": 3.27}
{"ordered_residues": "ARKYHERLPGGGWTLRRTKELRKD", "protein stability index": 3.82}
{"ordered_residues": "ARKYFERLPGGGWTLSRTKELRKD", "protein stability index": 3.17}
{"ordered_residues": "ARKYFERLPGGMWTLRRTKELRKD", "protein stability index": 2.95}
{"ordered_residues": "ARKYFERLPGGGWTLRHTKELRKD", "protein stability index": 3.2}
{"ordered_residues": "ARKYFERLPGGGWTLRRTKEIRKD", "protein stability index": 3.44}
{"ordered_residues": "ARKYFERLPGGGLTLRRTKELRKD", "protein stability index": 3.54}
{"ordered_residues": "ARKYFERLPGGGWTLRRTPELRKD", "protein stability index": 3.97}
{"ordered_residues": "ARKYFERLPGGGWTKRRTKELRKD", "protein stability index": 3.15}
{"ordered_residues": "ANKYFERLPGGGWTLRRTKELRKD", "protein stability index": 3.55}
{"ordered_residues": "ARKYFERLPGYGWTLRRTKELRKD", "protein stability index": 2.73}
{"ordered_residues": "ARVYFERLPGGGWTLRRTKELRKD", "protein stability index": 2.69}
{"ordered_residues": "ARKYFERLPGGHWTLRRTKELRKD", "protein stability index": 3.85}
{"ordered_residues": "ARKYFENLPGGGWTLRRTKELRKD", "protein stability index": 2.83}
{"ordered_residues": "ARKFFERLPGGGWTLRRTKELRKD", "protein stability index": 2.91}
{"ordered_residues": "ARKYFERLPGPGWTLRRTKELRKD", "protein stability index": 2.74}
{"ordered_residues": "ARKYFERLKGGGWTLRRTKELRKD", "protein stability index": 2.5}
{"ordered_residues": "ARKYFERLPGGGMTLRRTKELRKD", "protein stability index": 3.54}
{"ordered_residues": "ARKYFERLPDGGWTLRRTKELRKD", "protein stability index": 4.16}
{"ordered_residues": "ARKYFERLPSGGWTLRRTKELRKD", "protein stability index": 3.19}
{"ordered_residues": "ARKYFERLPGGGWTLRVTKELRKD", "protein stability index": 2.07}
{"ordered_residues": "ARKYFERLPGGGWTLRQTKELRKD", "protein stability index": 2.83}
{"ordered_residues": "ARKYFERDPGGGWTLRRTKELRKD", "protein stability index": 4.19}
{"ordered_residues": "ARQYFERLPGGGWTLRRTKELRKD", "protein stability index": 3.67}
{"ordered_residues": "ARWYFERLPGGGWTLRRTKELRKD", "protein stability index": 2.6}
{"ordered_residues": "ARKYFERLPGGGWTLRRTKELFKD", "protein stability index": 3.59}
{"ordered_residues": "ARKYFERLPGGGWTLRRTKESRKD", "protein stability index": 4.45}
{"ordered_residues": "ARKYNERLPGGGWTLRRTKELRKD", "protein stability index": 4.02}
{"ordered_residues": "ARKYFEDLPGGGWTLRRTKELRKD", "protein stability index": 3.21}
{"ordered_residues": "PRKYFERLPGGGWTLRRTKELRKD", "protein stability index": 2.89}
{"ordered_residues": "ARKYFERLPAGGWTLRRTKELRKD", "protein stability index": 2.93}
{"ordered_residues": "ARKYFERLPGGGWTLRRTKEPRKD", "protein stability index": 3.26}
{"ordered_residues": "ARKYFPRLPGGGWTLRRTKELRKD", "protein stability index": 3.39}
{"ordered_residues": "ARKYFERLPGGGWTLRNTKELRKD", "protein stability index": 3.22}
{"ordered_residues": "DRKYFERLPGGGWTLRRTKELRKD", "protein stability index": 4.11}
{"ordered_residues": "ARKYFERIPGGGWTLRRTKELRKD", "protein stability index": 3.5}
{"ordered_residues": "ARKYFERLPGWGWTLRRTKELRKD", "protein stability index": 2.82}
{"ordered_residues": "ARKYFIRLPGGGWTLRRTKELRKD", "protein stability index": 3.38}
{"ordered_residues": "ARKYFERLPGGGWTLRRTKELPKD", "protein stability index": 3.48}
{"ordered_residues": "ARKYFERLPGGGWTLRLTKELRKD", "protein stability index": 2.43}
{"ordered_residues": "ARKYFERLPGGGVTLRRTKELRKD", "protein stability index": 3.07}
{"ordered_residues": "ARKYFERLPGGGWVLRRTKELRKD", "protein stability index": 2.91}
{"ordered_residues": "ARKYFERLPGQGWTLRRTKELRKD", "protein stability index": 3.34}
{"ordered_residues": "ARCYFERLPGGGWTLRRTKELRKD", "protein stability index": 3.24}
{"ordered_residues": "ARKYFEYLPGGGWTLRRTKELRKD", "protein stability index": 3.25}
{"ordered_residues": "ARKYFERLPGGGWTLYRTKELRKD", "protein stability index": 1.45}
{"ordered_residues": "ARKYFDRLPGGGWTLRRTKELRKD", "protein stability index": 3.69}
{"ordered_residues": "ALKYFERLPGGGWTLRRTKELRKD", "protein stability index": 2.96}
{"ordered_residues": "ARKYFERLPGGGWTLRRIKELRKD", "protein stability index": 3.93}
{"ordered_residues": "AEKYFERLPGGGWTLRRTKELRKD", "protein stability index": 4.64}
{"ordered_residues": "ARKYFERLWGGGWTLRRTKELRKD", "protein stability index": 2.11}
{"ordered_residues": "ARKYFERLFGGGWTLRRTKELRKD", "protein stability index": 1.87}
{"ordered_residues": "ARKYFSRLPGGGWTLRRTKELRKD", "protein stability index": 3.21}
{"ordered_residues": "ARRYFERLPGGGWTLRRTKELRKD", "protein stability index": 3.9}
{"ordered_residues": "ARKYFERLPGGGWTLRRTKMLRKD", "protein stability index": 3.38}
{"ordered_residues": "ARKYFHRLPGGGWTLRRTKELRKD", "protein stability index": 3.34}
{"ordered_residues": "ARKYFERLIGGGWTLRRTKELRKD", "protein stability index": 2.13}
{"ordered_residues": "ARKYFERLPGGGWTLRRTKELRHD", "protein stability index": 3.33}
{"ordered_residues": "ARKYFERLPGGGWTLRRTKEKRKD", "protein stability index": 3.73}
{"ordered_residues": "ARKYFERLPGGKWTLRRTKELRKD", "protein stability index": 3.81}
